Measured Kd accompanies every entry in the list below.
- target: T1, active BoNT/G holotoxin (Clostridium botulinum, UniProt Q60393 2-1297)
- T1 sequence: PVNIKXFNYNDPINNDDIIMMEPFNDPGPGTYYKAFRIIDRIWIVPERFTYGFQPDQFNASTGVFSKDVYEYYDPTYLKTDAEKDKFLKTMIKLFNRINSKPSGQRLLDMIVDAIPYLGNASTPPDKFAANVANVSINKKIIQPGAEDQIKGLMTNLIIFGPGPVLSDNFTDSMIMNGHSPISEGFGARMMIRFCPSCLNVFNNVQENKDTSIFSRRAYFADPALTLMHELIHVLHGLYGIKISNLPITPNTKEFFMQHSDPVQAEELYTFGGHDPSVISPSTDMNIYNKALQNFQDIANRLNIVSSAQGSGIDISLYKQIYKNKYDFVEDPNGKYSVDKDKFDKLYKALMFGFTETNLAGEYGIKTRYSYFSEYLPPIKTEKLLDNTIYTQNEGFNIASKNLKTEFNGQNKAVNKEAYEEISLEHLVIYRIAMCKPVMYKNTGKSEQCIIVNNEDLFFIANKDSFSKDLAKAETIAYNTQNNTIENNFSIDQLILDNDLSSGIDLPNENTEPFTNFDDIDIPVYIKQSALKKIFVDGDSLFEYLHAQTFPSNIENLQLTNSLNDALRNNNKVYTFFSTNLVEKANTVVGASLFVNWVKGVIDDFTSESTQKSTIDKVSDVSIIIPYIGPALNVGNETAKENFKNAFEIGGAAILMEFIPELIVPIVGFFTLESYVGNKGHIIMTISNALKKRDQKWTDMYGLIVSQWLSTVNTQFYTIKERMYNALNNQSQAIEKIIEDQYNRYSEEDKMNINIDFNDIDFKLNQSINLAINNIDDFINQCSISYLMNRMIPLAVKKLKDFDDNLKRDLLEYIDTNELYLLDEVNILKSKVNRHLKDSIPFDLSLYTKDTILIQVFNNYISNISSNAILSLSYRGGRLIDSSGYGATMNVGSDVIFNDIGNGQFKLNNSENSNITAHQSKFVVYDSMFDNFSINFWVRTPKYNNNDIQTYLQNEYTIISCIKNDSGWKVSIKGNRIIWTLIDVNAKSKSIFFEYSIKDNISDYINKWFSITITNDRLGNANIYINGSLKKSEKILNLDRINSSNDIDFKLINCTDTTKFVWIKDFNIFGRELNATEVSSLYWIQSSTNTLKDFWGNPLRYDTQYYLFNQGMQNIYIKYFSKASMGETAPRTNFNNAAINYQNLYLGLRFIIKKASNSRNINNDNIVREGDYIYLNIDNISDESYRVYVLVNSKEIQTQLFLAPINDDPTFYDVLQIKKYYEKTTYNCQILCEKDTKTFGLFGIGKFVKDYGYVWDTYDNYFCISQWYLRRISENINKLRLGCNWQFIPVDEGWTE
- experimental.details: KinExA, IgG
measured.parameter: Kd (nM)

| binder | measured.parameter | readout.units | observed.measurement |
| --- | --- | --- | --- |
| Hu6G11.2 IgG (antibody, V domains shown) VH: QVQLVQSGAEVAKPGASVKMSCKASGYTFTSYWMHWVRQAPGQGLEWIGYINPSTGYTEYNQKFKDRATLTADKSKSTAYMELSSLRSEDTAVYYCARGYFSFAYWGQGTLVTVSS VL: DIVMTQSPSSLSASVRDRVTITCQASHDIKNFLNWFQQKPGKAPKLLVYDASHLQVGVPSRFSASGYGTEFTLTISSLQPEDFATYYCQQANSFPRTFGQGTKVEIKR | Kd | nM | 0.048 |
| Hu6G6.2 IgG (antibody, V domains shown) VH: QVQLVQSGAEVKKPGASVKLSCKASGFNIKDTYMHWVRQAPGQGLEWIGRIDPENGNTKYDPKFQGRATITAYKSINRAYLELSRLRSDDTAVYYCASGPNYYGTTWFAYWGQGTTVTVSS VL: EIVLTQSPSTLSASVGDRVTITCRASHGISNYLAWYQQKPGRAPKLLIYKASTLHIGVPSRFSGSGSGTEFALTISSLQPDDFSTYYCQQYNSYLPHTFGQGTRLEIKR | Kd | nM | 0.0422 |
| hu6G6.1 IgG (antibody, V domains shown) VH: QVQLVQSGAEVKKPGASVKLSCKASGFNIKDTYMHWVRQAPGQGLEWIGRIDPENGNTKYDPKFQGRATITAYKSINTAYLELSRLRSDDTAVYYCASGPNYYGTTWFAYWGQGTTVTVSS VL: EIVLTQSPSTLSASVGDRVTITCRASHGISNYLAWYQQKPGRAPKLLIYKASTLHIGVPSRFSGSGSGTEFALTISSLQPDDFSTYYCQQYNSYLPHTFGQGTRLEIKR | Kd | nM | 0.47 |
| Hu6G10 IgG (antibody, V domains shown) VH: QVQLVQSGAEVKKPGATVKISCKASGYSFTGYFMHWVRQAPGKGLEWIGRINPYNGDIIYNQNFKDRATLTVDKSTSTAYMELSSLRSEDTAVYYCASLFGLYYFDYWGQGTTLTVSS VL: DVVMTQSPSSVSASVGDRVTITCRASQRISNHLNWYQQKPGKAPKRLIYAASSLESGVPSRFSGSGSGTEFTLTISSLQPEDFATYFCLQHNSYPYTFGQGTKVEIKR | Kd | nM | 0.00836 |

Sourced from patent US20260116958A1
